Quick list: GI50 per entry.
# System: OVCAR-4
# assayText: NCI tumour cell line growth inhibition, 48 h
Active and inactive are the calls of the source. No stated cut-off is given here; in the data, active = GI50 up to about 1.1 µM and inactive = higher.

Known GI50 results, listed for orientation:
Exam item: Could you share what GI50 was measured for CCCC1=C(OC)C(=O)c2c(C)cc(Cl)nc2C1=O , tested on OVCAR-4?
Marked response: 6.37 µM (inactive)

Exam item: O=C1C=C(O)C(=Cc2c(O)cc(O)cc2O)C(O)=C1 ?
Marked response: > 100 µM (inactive)

Exam item: Try this compound too: C/C(=N\NC(N)=S)c1ccc(C)cc1C
Marked response: 84.5 µM (inactive)

Exam item: Same question for CC/N=C(/C#N)NCC please.
Marked response: > 100 µM (inactive)

Exam item: What do you get for CC1=CC[C@@H](C(C)(C)O)C[C@@H]1O ?
Marked response: > 5000 µM (inactive)

Others:
Exam item: # returns recorded GI50 (system: OVCAR-4) for Cc1ccc(N2C(=O)C3c4[nH]c5ccccc5c4C4CCC(C(C)(C)C)CC4C3C2=O)cc1 (stereo not drawn)
Marked response: 7.21 µM (inactive)

Exam item: What about CC1=C[C@@H]2[C@@H](CC(CO)=C[C@H]3[C@@H]4C(C)(C)[C@]4(OCC(C)C)[C@H](OCC(C)C)[C@@H](C)[C@]23O)C1=O ?
Marked response: 4.28 µM (inactive)

Exam item: Would you kindly repeat that for C/C=C(/C)C(=O)O[C@H]1[C@H](O)CC(c2ccc3c(c2O)C(=O)C2=C(O)C4(OC)C(=O)C(C(N)=O)=C(O)[C@H](CC(=O)c5ccccc5O)C4CC2[C@@]3(C)OC)O[C@@H]1C (stereo partly drawn) ?
Marked response: 0.0849 µM (active)

Exam item: Also, CCn1c(=O)c2c3cc(O)ccc3oc2c2ccc(O)cc21 please.
Marked response: 34.8 µM (inactive)

Exam item: Try CCOC(=O)N1c2ccccc2C(C)=CC(C)C1C (stereo not drawn) next.
Marked response: 60.5 µM (inactive)

Exam item: Cool, now Cc1ccn2c(=O)cc(-c3ccccc3)nc2c1
Marked response: > 100 µM (inactive)

Exam item: Record: Cc1ccc(I)cc1N=C=S
Marked response: 26.9 µM (inactive)

Exam item: What would you report for O=C(CCc1cccc(O)c1)NCCc1cccc(O)c1 ?
Marked response: > 100 µM (inactive)

Exam item: Same read-out for COC(=O)c1ccc(/N=N/N(C)COc2ccc(C#N)cc2)cc1 ?
Marked response: > 100 µM (inactive)

====

# Test system: KM12
# assayText: NCI tumour cell line growth inhibition, 48 h
Activity calls are given as the source filed them. Cut-off read from the data, not from the text of the source: active = GI50 up to about 1.1 µM and inactive = higher.
observedProperty: GI50

Exam item: Tell me the measured GI50 of OC1c2[nH]c3ccccc3c2CCN2CCCCC12 (stereo not drawn) , please.
Marked response: > 100 µM (inactive)

Exam item: Next up: CCCCCCCCCCCCCCCCCCOP(=O)([O-])OCC[N+](C)(C)C
Marked response: 0.273 µM (active)

Exam item: Do the same for CCOC(=O)C1=C(N)N(c2ccccc2)/C(=C2\SC(=S)N(c3ccc(C)cc3)C2=O)S1 please
Marked response: > 100 µM (inactive)

====

Readings of GI50 for the listed molecules
# System: DU-145
# assayText: NCI tumour cell line growth inhibition, 48 h
The source made the active and inactive calls. Cut-off read from the data, not from the text of the source: active = GI50 up to about 1.1 µM and inactive = higher.

Exam item: Request - read-out GI50 | tested on DU-145 | molecule CCCCCCCCCc1cc(=O)c2c(O)cc(O)cc2o1
Marked response: 20.2 µM (inactive)

---
Exam item: Field: GI50 (DU-145). Entry: Clc1ncc(Cl)c(Cl)n1
Marked response: 11.8 µM (inactive)

Exam item: Also, CCOC(=O)/C(C#N)=C/c1coc2cc(C)cc(C)c2c1=O please.
Marked response: > 100 µM (inactive)

Exam item: And the next one, COc1cc2[nH]c(=O)c3cc(C)cc4c(Cl)nc(c1OC)c2c43 ?
Marked response: 61.8 µM (inactive)

====

# Test system: NCI-H226
# assayText: NCI tumour cell line growth inhibition, 48 h
Calls of active or inactive are those of the source. No stated cut-off is given here; in the data, active = GI50 up to about 1.1 µM and inactive = higher.
Output constraint: value belongs to 1.0 for active, 0.0 for inactive

Exam item: Assay result, entry COC(=O)/C(C#N)=C1\CCC(O)N1 (centres undefined) — outcome?
Marked response: 0.0

***
Exam item: Outcome? COC(=O)C1=C(C(=O)Nc2cccnc2Cl)N(c2ccc(OC)cc2[N+](=O)[O-])C(c2ccc(C)cc2)=CC1c1ccc(OC)cc1OC (centres undefined)
Marked response: 0.0

Exam item: What do you get for CCCC(=O)Nc1cn(COC)c(C(=O)N2C[C@@H]3C[C@]34C2=CC(=O)c2[nH]cc(C)c24)n1 ?
Marked response: 0.0

====

# Tested on: MCF7
# assayText: NCI tumour cell line growth inhibition, 48 h
Calls of active or inactive are those of the source. No stated cut-off is given here; in the data, active = GI50 up to about 1.1 µM and inactive = higher.
Select the correct class. Options are active, inactive and nothing else.

Examples from the recorded data:
Exam item: In this assay, the call recorded for C=C(C(N)=O)c1ccc([N+](=O)[O-])o1 was what?
Marked response: inactive

Exam item: And then COc1ccc2nc(-c3ccc(N)cc3)sc2c1 , what is it?
Marked response: inactive

Exam item: Do the same for CO[C@H]1O[C@@H]2CO[C@@H](c3ccccc3)O[C@H]2[C@@H]2CC=CCC[C@]12O please
Marked response: inactive

Exam item: Same question, Cc1cc(C)c2c(=N)c3ccccc3n(CCCCCCCCn3c4ccccc4c(=N)c4c(C)cc(C)nc43)c2n1 this time
Marked response: active

Exam item: Try this molecule too: COC1CCC(OS(C)(=O)=O)C(C)O1 (configuration not stated)
Marked response: inactive

Exam item: Follow-up item: CC1CCC2(NC1)OC1CC3C4CC=C5CC(OC6OC(CO)C(OC7OC(C)C(O)C(O)C7O)C(O)C6OC6OC(C)C(O)C(O)C6O)CCC5(C)C4CCC3(C)C1C2C (configuration not stated)
Marked response: inactive

Kindly consider the entry below.
Exam item: Could you kindly confirm the outcome this assay logged for Cc1cc(C)nc(NS(=O)(=O)c2ccc(Nc3c4ccccc4nc4c(C(=O)NNCCO)cccc34)cc2)n1 ?
Marked response: inactive

====

# Test system: Hs-578T
# assayText: NCI tumour cell line growth inhibition, 48 h
Activity calls are given as the source filed them. Rule as the data show it: active = GI50 up to about 1.1 µM and inactive = higher.
Give your call using only these classes: active, inactive

# count of solved cases: 5
Exam item: How was Cc1ccc(I)cc1N=C=S classified in this test?
Marked response: inactive

Exam item: Moving on to the next compound: CC1CC(C)C(C#N)N(C)c2ccccc21 (configuration not stated)
Marked response: inactive

Exam item: Then what about the compound O=C1NC(N2CCOCC2)=N/C1=C\c1cccs1 ?
Marked response: inactive

Exam item: Moving on to the next compound: O=C1C(c2ccccc2)=[N+]([O-])c2ccccc21
Marked response: inactive

Exam item: What do you have for C=C1C(=O)OC2CCN3CC=C(COC(=O)C(C)(O)C4(CO4)C1C)C23 (configuration not stated) ?
Marked response: inactive

Continuing:
Exam item: For O=c1cc(N2CCNCC2)nc2ccccn12 , which call appears in the assay record?
Marked response: inactive

Exam item: Quick one: COc1cccc(Cc2cc(=O)c3ccc(C)nc3[nH]2)c1
Marked response: inactive

Exam item: Also need O=C1C(N2CCN(CCOCCO)CC2)=C(Cl)C(=O)c2ncccc21 , thanks.
Marked response: inactive

Exam item: CN(C)/C=N/S(=O)(=O)c1nn2c(C=O)c(-c3ccc(-c4ccccc4)cc3)nc2s1 , same question.
Marked response: inactive

Exam item: Also C/C=C(/C)C(=O)O[C@H]1[C@H](O)CC(c2ccc3c(c2O)C(=O)C2=C(O)C4(OC)C(=O)C(C(N)=O)=C(O)[C@H](CC(=O)c5ccccc5O)C4CC2[C@@]3(C)OC)O[C@@H]1C (some centres not stated) ?
Marked response: active

Exam item: What would you report for N#CCCN(CCC#N)c1ccc(C(=N/c2ccc(Cl)cc2)/N=N/c2ccc(Cl)cc2)cc1 ?
Marked response: inactive

Exam item: Field entry: O=C1C=C(N2CCN(CCOCCO)CC2)C(=O)c2c(O)ccc(O)c21
Marked response: inactive

Exam item: Try CC(=O)O[C@H]1C(=O)[C@@]2(C)[C@H]([C@H](OC(=O)c3ccoc3)[C@]3(O)C[C@H](OC(=O)[C@H](O)[C@@H](NC(=O)c4ccccc4)c4ccccc4)C(C)=C1C3(C)C)[C@]1(OC(C)=O)CO[C@@H]1C[C@@H]2O next.
Marked response: active

====

# System: BT-549
# assayText: NCI tumour cell line growth inhibition, 48 h
Calls of active or inactive are those of the source. Cut-off read from the data, not from the text of the source: active = GI50 up to about 1.1 µM and inactive = higher.
Hi! Could you answer with just one of these? active, inactive

Exam item: Hi, sorry to bother you, what did the test record for c1c[nH]c(-c2cccc3nsnc23)c1 ?
Marked response: inactive

Exam item: Please give the result for CC(C)(C)C1CCC2c3c([nH]c4ccccc34)C3C(=O)N(c4ccc5c(c4)C(=O)c4ccccc4C5=O)C(=O)C3C2C1 (configuration not stated) too.
Marked response: inactive

Exam item: Would you kindly repeat that for C/C=C/C(O)P(=O)(OC)OC (configuration not stated) ?
Marked response: active

Exam item: Also C=C1C(=O)O[C@@H]2C[C@@H](C)[C@@H]3C=CC(=O)[C@@]3(C)[C@@H](OC(=O)CCCC(=O)O[C@H]3[C@@H]4C(=C)C(=O)O[C@@H]4C[C@@H](C)[C@@H]4C=CC(=O)[C@]43C)[C@H]12 ?
Marked response: active

Exam item: Try the molecule Cc1ccc2c(=O)c(-c3n[nH]c(=S)s3)c[nH]c2n1
Marked response: inactive

Others:
Exam item: What is the recorded call for this molecule in the test? CC(C(N)=O)N(C)C(=O)c1cnc2ccccc2c1 (configuration not stated)
Marked response: inactive

Exam item: Cool, now OC1c2[nH]c3ccccc3c2CCN2CCCCC12 (configuration not stated)
Marked response: inactive

Measured values drawn from ChEMBL document CHEMBL1201862 for this set.
